Entry source: patent US20130023553A1

ASSAY_REMARKS: Pharmacokinetics following intravenous (IV) dosing
Format: in vivo, Sprague-Dawley rats
TEST_SETTINGS: male, Sprague-Dawley, rat, plasma; hydroxycodone series, 1 mg/kg IV, Mean ± SD
QUANTITY_KIND: AUC(0-inf) (ng·h/mL)
Record the value in ng·h/mL, omitting the unit from your answer.

// solved cases for AUC(0-inf) follow
Query COCCOCCOCCOCCOCCOCCOCCOC1CCC2(O)C3Cc4ccc(OC)c5c4C2(CCN3C)C1O5 (stereo not drawn) [α-6-mPEG7-O-hydroxycodone, α-6-mPEG7-O-oxycodone] yields AUC(0-inf) of 263

Query COCCOCCOCCOCCOCCOCCOCCOCCOCCOC1CCC2(O)C3Cc4ccc(OC)c5c4C2(CCN3C)C1O5 (stereo not drawn) [α-6-mPEG9-O-hydroxycodone, α-6-mPEG9-O-oxycodone] yields AUC(0-inf) of 350

Query COCCOCCOCCOCCOCCOCCOC1CCC2(O)C3Cc4ccc(OC)c5c4C2(CCN3C)C1O5 (stereo not drawn) [α-6-mPEG6-O-hydroxycodone, α-6-mPEG6-O-oxycodone] yields AUC(0-inf) of 218

Query COCCOCCOC1CCC2(O)C3Cc4ccc(OC)c5c4C2(CCN3C)C1O5 (stereo not drawn) [α-6-mPEG2-O-hydroxycodone, α-6-mPEG2-O-oxycodone] yields AUC(0-inf) of 203

Query COCCOCCOCCOCCOCCOC1CCC2(O)C3Cc4ccc(OC)c5c4C2(CCN3C)C1O5 (stereo not drawn) [α-6-mPEG5-O-hydroxycodone, α-6-mPEG5-O-oxycodone] yields AUC(0-inf) of 295

More entries:
Query COCCOCCOCCOCCOC1CCC2(O)C3Cc4ccc(OC)c5c4C2(CCN3C)C1O5 (stereo not drawn) [α-6-mPEG4-O-hydroxycodone, α-6-mPEG4-O-oxycodone] yields AUC(0-inf) of 193

Query COCCOCCOCCOC1CCC2(O)C3Cc4ccc(OC)c5c4C2(CCN3C)C1O5 (stereo not drawn) [α-6-mPEG3-O-hydroxycodone, α-6-mPEG3-O-oxycodone] yields AUC(0-inf) of 233

----------
ASSAY_REMARKS: Pharmacokinetics following intravenous (IV) dosing
Type: in vivo, Sprague-Dawley rats
TEST_SETTINGS: male, Sprague-Dawley, rat, plasma; hydroxycodone series, 1 mg/kg IV, Mean ± SD; read-out: Cmax
QUANTITY_KIND: Cmax

Query COCCOCCOCCOCCOCCOCCOCCOCCOCCOC1CCC2(O)C3Cc4ccc(OC)c5c4C2(CCN3C)C1O5 (stereo not drawn) [α-6-mPEG9-O-hydroxycodone, α-6-mPEG9-O-oxycodone] yields Cmax of 955 ng/mL

Query COCCOCCOCCOCCOCCOCCOC1CCC2(O)C3Cc4ccc(OC)c5c4C2(CCN3C)C1O5 (stereo not drawn) [α-6-mPEG6-O-hydroxycodone, α-6-mPEG6-O-oxycodone] yields Cmax of 445 ng/mL

Query COCCOCCOC1CCC2(O)C3Cc4ccc(OC)c5c4C2(CCN3C)C1O5 (stereo not drawn) [α-6-mPEG2-O-hydroxycodone, α-6-mPEG2-O-oxycodone] yields Cmax of 513 ng/mL

Query COCCOCCOCCOCCOCCOC1CCC2(O)C3Cc4ccc(OC)c5c4C2(CCN3C)C1O5 (stereo not drawn) [α-6-mPEG5-O-hydroxycodone, α-6-mPEG5-O-oxycodone] yields Cmax of 622 ng/mL

Query COCCOCCOCCOCCOCCOCCOCCOC1CCC2(O)C3Cc4ccc(OC)c5c4C2(CCN3C)C1O5 (stereo not drawn) [α-6-mPEG7-O-hydroxycodone, α-6-mPEG7-O-oxycodone] yields Cmax of 489 ng/mL

More entries:
Query COCCOCCOCCOCCOC1CCC2(O)C3Cc4ccc(OC)c5c4C2(CCN3C)C1O5 (stereo not drawn) [α-6-mPEG4-O-hydroxycodone, α-6-mPEG4-O-oxycodone] yields Cmax of 537 ng/mL

Query COCCOCCOCCOC1CCC2(O)C3Cc4ccc(OC)c5c4C2(CCN3C)C1O5 (stereo not drawn) [α-6-mPEG3-O-hydroxycodone, α-6-mPEG3-O-oxycodone] yields Cmax of 746 ng/mL

----------
TARGET_UNDER_TEST: human mu opioid receptor (Homo sapiens, UniProt P35372)
Construct: expressed in transfected cells; host or cells: CHO cells
Sequence (P35372 whole entry): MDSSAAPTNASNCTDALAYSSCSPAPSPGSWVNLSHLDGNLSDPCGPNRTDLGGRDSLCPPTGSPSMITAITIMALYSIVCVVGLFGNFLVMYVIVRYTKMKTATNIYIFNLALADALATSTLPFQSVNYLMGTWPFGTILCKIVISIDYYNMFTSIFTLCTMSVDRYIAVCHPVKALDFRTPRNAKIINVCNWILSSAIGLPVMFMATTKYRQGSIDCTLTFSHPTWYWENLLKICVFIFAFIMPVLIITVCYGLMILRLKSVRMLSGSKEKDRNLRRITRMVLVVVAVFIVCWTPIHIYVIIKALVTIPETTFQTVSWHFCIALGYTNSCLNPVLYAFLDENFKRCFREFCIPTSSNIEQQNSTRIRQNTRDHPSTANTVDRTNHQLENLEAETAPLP
ASSAY_REMARKS: biochemical
Type: binding
QUANTITY_KIND: pKi
Kindly note that pKi refers to -log10 of the concentration in mol/L and answer with the value alone.

// solved cases for pKi follow
Simply: COCCOC1C=CC2C3Cc4ccc(O)c5c4C2(CCN3C)C1O5 (stereo not shown) , human mu opioid receptor (Homo sapiens, UniProt P35372), pKi = 7.80

Simply: COCCOCCOCCOCCOC1CCC2(O)C3Cc4ccc(OC)c5c4C2(CCN3C)C1O5 (stereo not drawn) [α-6-mPEG4-O-hydroxycodone, α-6-mPEG4-O-oxycodone] , human mu opioid receptor (Homo sapiens, UniProt P35372), pKi = 6.05

Simply: COCCOCCOCCOCCOCCOCCOC1C=CC2C3Cc4ccc(O)c5c4C2(CCN3C)C1O5 (stereo not shown) , human mu opioid receptor (Homo sapiens, UniProt P35372), pKi = 7.14

Please look at the following compound next.
Simply: COCCOCCOCCOCCOCCOCCOCCOC1C=CC2C3Cc4ccc(O)c5c4C2(CCN3C)C1O5 (stereo not shown) , human mu opioid receptor (Homo sapiens, UniProt P35372), pKi = 7.25

----------
ASSAY_REMARKS: Pharmacokinetics following oral (PO) dosing
Type: in vivo, Sprague-Dawley rats
TEST_SETTINGS: male, Sprague-Dawley, rat, plasma; hydroxycodone series, 5.0 mg/kg oral, Mean ± SD; * n = 2; read-out: T1/2(z)
Satisfied means recorded half-life is 1 h or above; Not satisfied means it is below 1 h.

Exercise: Is half-life at least 1 h? Consider COCCOC1CCC2(O)C3Cc4ccc(OC)c5c4C2(CCN3C)C1O5 (stereo not drawn) [α-6-mPEG1-O-hydroxycodone, α-6-mPEG1-O-oxycodone]
Solution: Not satisfied

Exercise: Is half-life at least 1 h? Consider COCCOCCOCCOCCOC1CCC2(O)C3Cc4ccc(OC)c5c4C2(CCN3C)C1O5 (stereo not drawn) [α-6-mPEG4-O-hydroxycodone, α-6-mPEG4-O-oxycodone]
Solution: Satisfied

Exercise: Is half-life at least 1 h? Consider COCCOCCOCCOCCOCCOCCOC1CCC2(O)C3Cc4ccc(OC)c5c4C2(CCN3C)C1O5 (stereo not drawn) [α-6-mPEG6-O-hydroxycodone, α-6-mPEG6-O-oxycodone]
Solution: Satisfied

Exercise: Is half-life at least 1 h? Consider COCCOCCOC1CCC2(O)C3Cc4ccc(OC)c5c4C2(CCN3C)C1O5 (stereo not drawn) [α-6-mPEG2-O-hydroxycodone, α-6-mPEG2-O-oxycodone]
Solution: Not satisfied

Query molecule follows.
Exercise: Is half-life at least 1 h? Consider COCCOCCOCCOCCOCCOCCOCCOC1CCC2(O)C3Cc4ccc(OC)c5c4C2(CCN3C)C1O5 (stereo not drawn) [α-6-mPEG7-O-hydroxycodone, α-6-mPEG7-O-oxycodone]
Solution: Satisfied

----------
ASSAY_REMARKS: Pharmacokinetics following oral (PO) dosing
Type: in vivo, Sprague-Dawley rats
TEST_SETTINGS: male, Sprague-Dawley, rat, plasma, po, 5 mg/kg
# bioavailability annotations
Record the value in %, omitting the unit from your answer.

Query COCCOCCOCCOCCOC1CCC2(O)C3Cc4ccc(OC)c5c4C2(CCN3C)C1O5 (stereo not drawn) [α-6-mPEG4-O-hydroxycodone, α-6-mPEG4-O-oxycodone] yields bioavailability of 11

Query COCCOCCOCCOCCOCCOCCOCCOC1CCC2(O)C3Cc4ccc(OC)c5c4C2(CCN3C)C1O5 (stereo not drawn) [α-6-mPEG7-O-hydroxycodone, α-6-mPEG7-O-oxycodone] yields bioavailability of 28.1

Query COCCOCCOC1C=CC2C3Cc4ccc(OC)c5c4C2(CCN3C)C1O5 (stereo not drawn) yields bioavailability of 0.57

----------
# clearance annotations
ASSAY_REMARKS: Pharmacokinetics following intravenous (IV) dosing
Type: in vivo, Sprague-Dawley rats
TEST_SETTINGS: male, Sprague-Dawley, rat, plasma, iv, 1 mg/kg
Record the value in mL/min/kg, omitting the unit from your answer.

// solved cases for clearance follow
Query COCCOCCOCCOCCOCCOCCOCCOCCOCCOC1C=CC2C3Cc4ccc(OC)c5c4C2(CCN3C)C1O5 (stereo not drawn) yields clearance of 48.6

Query COCCOCCOCCOCCOCCOCCOCCOC1C=CC2C3Cc4ccc(OC)c5c4C2(CCN3C)C1O5 (stereo not drawn) yields clearance of 73.1

Please look at the following compound next.
Query COCCOCCOC1C=CC2C3Cc4ccc(OC)c5c4C2(CCN3C)C1O5 (stereo not drawn) yields clearance of 69

----------
ASSAY_REMARKS: Pharmacokinetics following intravenous (IV) dosing
Type: in vivo, Sprague-Dawley rats
TEST_SETTINGS: male, Sprague-Dawley, rat, plasma, iv, 1 mg/kg
QUANTITY_KIND: AUC

// solved cases for AUC follow
Query COCCOCCOCCOCCOCCOC1C=CC2C3Cc4ccc(OC)c5c4C2(CCN3C)C1O5 (stereo not drawn) [α-6-mPEG5-O-codeine] yields AUC of 192 ng·h/mL

Query COCCOCCOC1C=CC2C3Cc4ccc(OC)c5c4C2(CCN3C)C1O5 (stereo not drawn) [α-6-mPEG2-O-codeine] yields AUC of 242 ng·h/mL

Query COCCOCCOCCOCCOC1C=CC2C3Cc4ccc(OC)c5c4C2(CCN3C)C1O5 (stereo not drawn) [α-6-mPEG4-O-codeine] yields AUC of 253 ng·h/mL

Query COCCOCCOCCOCCOCCOCCOCCOC1C=CC2C3Cc4ccc(OC)c5c4C2(CCN3C)C1O5 (stereo not drawn) [α-6-mPEG7-O-codeine] yields AUC of 212 ng·h/mL

Query COCCOC1C=CC2C3Cc4ccc(OC)c5c4C2(CCN3C)C1O5 (stereo not drawn) [α-6-mPEG1-O-codeine] yields AUC of 258 ng·h/mL

Query COCCOCCOCCOC1C=CC2C3Cc4ccc(OC)c5c4C2(CCN3C)C1O5 (stereo not drawn) [α-6-mPEG3-O-codeine] yields AUC of 288 ng·h/mL

More entries:
Query COCCOCCOCCOCCOCCOCCOCCOCCOCCOC1C=CC2C3Cc4ccc(OC)c5c4C2(CCN3C)C1O5 (stereo not drawn) [α-6-mPEG9-O-codeine] yields AUC of 297 ng·h/mL
